# target_under_test: T1, human B7-H4 on the cell surface (human, UniProt Q7Z7D3 25-282)
# T1 sequence: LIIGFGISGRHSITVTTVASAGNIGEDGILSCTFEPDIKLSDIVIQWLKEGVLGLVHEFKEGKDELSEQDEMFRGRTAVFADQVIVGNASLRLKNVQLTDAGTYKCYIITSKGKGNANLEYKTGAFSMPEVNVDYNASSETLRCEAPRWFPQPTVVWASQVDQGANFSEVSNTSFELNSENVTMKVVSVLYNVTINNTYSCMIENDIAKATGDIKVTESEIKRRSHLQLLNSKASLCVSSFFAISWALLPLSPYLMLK
# assay_remarks: cell-based or functional assay
Can you tell me Donor 3 Max IFNγ for the items I'm about to list?
Quick reminder: number only, in pg/mL, skip the unit.

I am curious: what Donor 3 Max IFNγ value has been reported for B7-H4 antibody 20500 (antibody, human IgG1, kappa, V domains shown, human IgG1/kappa) VH: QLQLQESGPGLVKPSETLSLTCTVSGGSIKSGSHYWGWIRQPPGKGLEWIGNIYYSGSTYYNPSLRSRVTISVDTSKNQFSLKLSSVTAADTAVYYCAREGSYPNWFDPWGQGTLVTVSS VL: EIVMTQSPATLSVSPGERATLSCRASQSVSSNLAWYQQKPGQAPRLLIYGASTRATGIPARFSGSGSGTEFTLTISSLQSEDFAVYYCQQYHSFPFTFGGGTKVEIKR ?
118

I am curious: what Donor 3 Max IFNγ value has been reported for B7-H4 antibody 20506 (antibody, V domains shown, human IgG1/kappa) VH: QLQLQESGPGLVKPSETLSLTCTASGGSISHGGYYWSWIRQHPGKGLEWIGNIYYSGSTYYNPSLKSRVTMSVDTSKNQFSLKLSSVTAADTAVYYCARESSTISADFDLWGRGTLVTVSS VL: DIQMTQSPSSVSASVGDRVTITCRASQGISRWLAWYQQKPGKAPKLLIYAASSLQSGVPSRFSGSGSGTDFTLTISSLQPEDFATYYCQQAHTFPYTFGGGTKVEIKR ?
86.1

I am curious: what Donor 3 Max IFNγ value has been reported for B7-H4 antibody 20501 (antibody, human IgG1, kappa, V domains shown, human IgG1/kappa) VH: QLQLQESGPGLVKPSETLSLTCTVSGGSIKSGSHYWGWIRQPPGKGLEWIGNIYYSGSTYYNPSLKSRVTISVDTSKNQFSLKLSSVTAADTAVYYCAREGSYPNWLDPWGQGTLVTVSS VL: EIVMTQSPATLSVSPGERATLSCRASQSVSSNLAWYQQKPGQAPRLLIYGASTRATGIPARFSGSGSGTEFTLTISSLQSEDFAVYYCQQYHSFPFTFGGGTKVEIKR ?
136

I am curious: what Donor 3 Max IFNγ value has been reported for B7-H4 antibody 20502.1 (antibody, human IgG1, kappa, V domains shown, human IgG1/kappa) VH: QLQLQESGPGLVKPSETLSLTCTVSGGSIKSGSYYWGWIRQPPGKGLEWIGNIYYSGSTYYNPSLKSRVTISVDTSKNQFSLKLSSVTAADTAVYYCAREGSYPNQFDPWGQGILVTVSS VL: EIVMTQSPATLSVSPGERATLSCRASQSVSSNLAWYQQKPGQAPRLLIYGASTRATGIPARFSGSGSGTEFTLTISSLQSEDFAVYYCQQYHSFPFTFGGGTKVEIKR ?
174
